- experimental system: BTK (Homo sapiens, UniProt Q06187)
- Sequence (Q06187 402-655 limits assumed): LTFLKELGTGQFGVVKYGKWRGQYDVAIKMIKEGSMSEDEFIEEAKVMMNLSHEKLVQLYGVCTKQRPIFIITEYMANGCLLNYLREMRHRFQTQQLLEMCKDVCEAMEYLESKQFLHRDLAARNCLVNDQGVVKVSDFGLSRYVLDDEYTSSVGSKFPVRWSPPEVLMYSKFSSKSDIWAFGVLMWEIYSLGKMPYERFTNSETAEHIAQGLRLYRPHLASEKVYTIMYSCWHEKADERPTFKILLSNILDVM
- procedure summary: biochemical
- stated conditions: read-out: BTK inhibition (%), 0.75 uM BTK, […] probe 3l, 15 min preincubation
measured endpoint: inhibition at 10 µM (%)
Write the answer as a number in %, unit excluded.

smiles	value observed
CO[C@H]1/C=C/O[C@@]2(C)Oc3c(C)c(O)c4c(O)c(c5c(nc6cc(C)ccn65)c4c3C2=O)NC(=O)/C(C)=C\C=C\[C@H](C)[C@H](O)[C@@H](C)[C@@H](O)[C@@H](C)[C@H](OC(C)=O)[C@@H]1C	10.1
N#Cc1ccc([C@H]2CCc3cncn32)c(F)c1	6.2
O=C1CCc2ccccc2O1	-9.3
CS(=O)(=O)c1ccc(-c2cnc(NCc3ccco3)n3cnnc23)cc1	-6.9
COc1ccc(-c2oc3c(CC=C(C)C)c(O[C@@H]4O[C@H](CO)[C@@H](O)[C@H](O)[C@H]4O)cc(O)c3c(=O)c2O[C@@H]2O[C@@H](C)[C@H](O)[C@@H](O)[C@H]2O[C@@H]2O[C@@H](C)[C@H](O)[C@@H](O)[C@H]2O)cc1	-13.1
CC1(C)CC[C@]2(C(=O)O[C@@H]3O[C@H](CO)[C@@H](O)[C@H](O)[C@H]3O)CC[C@]3(C)C(=CC[C@@H]4[C@@]5(C)CC[C@H](O[C@@H]6O[C@H](C(=O)O)[C@@H](O)[C@H](O)[C@H]6O)C(C)(C)[C@@H]5CC[C@]43C)[C@@H]2C1	3.1

# ---- query compound ----
Q: Need inhibition at 10 µM, item Nc1ccccc1NC(=O)c1cnccn1
A: -3.9
